molecular target: T1, recombinant human IL4Rα-his protein (in house made) (human, UniProt P24394 26-232, limits assumed); experiment: competitive ELISA: coated human IL4Rα-his, blocked ligand biotin human IL4
T1 construct: also called Human IL4Ra-his
Reported IC50 by item:
QUANTITY KIND: IC50 (nM)

BINDER | OBSERVED RESULT
mouse antibody B1D2F7D3B5 (antibody, V domains shown, Mouse hybridoma mAb) VH: EVKLVESGGGLVKPGGSLKLSCAASGFTFSSYAMSWVRQTPEKRLEWVASISSGDSTYYLDSVKGRFTISRDNAMNILYLQMSSLRSEDTAVYYCERSGGSAPYWGQGTLVSVSA VL: QIVLTQSPAIMSASPGEMVTISCSASSSVSYMYWYQQKPGSSPKPWIYRTSNLASGVPARFSGSGSGTSYSLTISSMEAEDAATYYCQQYHSFPLTFGAGTKLELK | 1.8
mouse antibody B9D1D11F8D8 (antibody, V domains shown, Mouse hybridoma mAb) VH: EVKLVESGGGLVKPGGSLKLSCAASGFTFSSYAMSWVRQTPEKRLEWVASISSGDSTYYLDSVKGRFTISRDNARNILYLQVSSLRSEDTAMYYCERSGGSAPYWGQGTLVTVSA VL: QIVLTQSPAIMSASPGDMVTISCSASSSVNYMYWYQQKPGSSPKPWIYRTSNLASGVPARFSGSGSGTSYSLTISSMEAEDAATYYCQQYHSFPLTFGAGTKLELK | 2.88
mouse antibody C2C1A1A1 (antibody, V domains shown, Mouse hybridoma mAb; also called Mouse C2C1A1A1) VH: EVQLVESGGGLVQPGGSLKLSCAASGFTFSTYGMSWVRQTPDKRLELVATINSNGGSTSYPDSVKGRFTISRDNAKNTLYLQMSSLKSEDTAMFYCARFFRFRNAMDYWGQGTSVTVSS VL: DIQMTQSPASLSASVGETVTITCRTSENIYSYLAWYQQKQGKSPQFLVYNAKTLAEGVPSRFSGSGSGTQFSLNINSLQSEDFGSYYCQHYYGPPTWTFGGGTKLEIK | 0.812
mouse antibody B8G11F2B7G5E8 (antibody, V domains shown, Mouse hybridoma mAb; also called Mouse B8G11F2B7G5E8; mAb B8G11F2B7G5E8) VH: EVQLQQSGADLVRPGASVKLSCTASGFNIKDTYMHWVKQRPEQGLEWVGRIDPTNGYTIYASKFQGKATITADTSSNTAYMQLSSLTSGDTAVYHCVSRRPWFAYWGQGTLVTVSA VL: DILMTQTPLSLPVSLGAQASISCRSSQSIVHSNGNTYLEWYLQKPGQSPKLLIYKVTNRFSGVPDRFSGSGSGTDFTLKISRVEAEDLGIYYCFQGSHVPYTFGGGTKLEIK | 0.81
